System: MCF7
assay-protocol: NCI tumour cell line growth inhibition, 48 h
Activity calls are given as the source filed them. Cut-off read from the data, not from the text of the source: active = GI50 up to about 1.1 µM and inactive = higher.

# molecule, GI50
data = [
    ("CC(C)NC(=O)CN1CCN(C2=C(Cl)C(=O)c3c(O)ccc(O)c3C2=O)CC1", "1.49 µM (inactive)"),
    ("Cc1ccc(/N=C2N=C(Cl)/C(=C\\c3ccccc3)N\\2)cc1", "> 100 µM (inactive)"),
    ("O=[N+]([O-])c1cc(Cl)cnc1Br", "1.32 µM (inactive)"),
    ("CC(c1ccccc1)n1cncc1C(=O)NN1CCN(C)CC1 (centres undefined)", "> 10 µM (inactive)"),
    ("COC(=N)C1(C#N)NC(c2ccsc2)C(C#N)(C#N)NC1c1ccsc1 (centres undefined)", "> 100 µM (inactive)"),
    ("Cc1cc(O)c(C(C)C)cc1/N=C/c1ccccc1O", "7.26 µM (inactive)"),
    ("OC1(c2ccccc2)CC2CCC(C1)N2CCc1ccccc1 (centres undefined)", "28.6 µM (inactive)"),
    ("C=CCc1cccc(/C=N\\N/C(N)=N/O)c1O", "2.56 µM (inactive)"),
    ("CC(=O)CCC(=O)CC(O)(C(F)(F)F)C(F)(F)F", "18.8 µM (inactive)"),
]
